# TESTED TARGET: T1, RBFOX1 RRM RbFoxmut (Fox-RRM*) (Homo sapiens, UniProt Q9NWB1 109-208, R118D;E147R;N151S;E152T)
# T1 sequence: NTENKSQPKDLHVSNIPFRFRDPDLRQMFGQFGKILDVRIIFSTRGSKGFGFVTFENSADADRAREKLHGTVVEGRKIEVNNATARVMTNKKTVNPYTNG
# PROTOCOL TEXT: EMSA; HiTS-Eq, 1 nM pool, 10 min; buffer printed only for the single-RNA assays: 10 mM Tris pH 7.5, 150 mM NaCl, 3.4 mM EDTA, 0.001% NP-40, 30 C
# TEST SETTINGS: tags: His6 N-terminal (pET28a); label: 5' 32P
The full ranking holds about 16,000 sequences; the median of “ka relative to ugcaugu” is about 0.096, and the highest 2% start at about 0.35. The entries come from a sample that favours the highest values as a whole.

[
  {
    "BINDER": "UAACUCU (DNA:RNA) RNA: GGGAGACCGGAAUUCAGAUUGUCCUAACUCUUUAAAUCCCGUCGUAGCCACCA DNA 1: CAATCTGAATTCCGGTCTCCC DNA 2: TGGTGGCTACGACGGGATT",
    "binding signal": "0.0488 KA relative to UGCAUGU"
  },
  {
    "BINDER": "UAGCGCA (DNA:RNA) RNA: GGGAGACCGGAAUUCAGAUUGUCCUAGCGCAUUAAAUCCCGUCGUAGCCACCA DNA 1: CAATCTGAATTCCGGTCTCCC DNA 2: TGGTGGCTACGACGGGATT",
    "binding signal": "0.124 KA relative to UGCAUGU"
  },
  {
    "BINDER": "GUCAGCC (DNA:RNA) RNA: GGGAGACCGGAAUUCAGAUUGUCCGUCAGCCUUAAAUCCCGUCGUAGCCACCA DNA 1: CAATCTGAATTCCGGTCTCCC DNA 2: TGGTGGCTACGACGGGATT",
    "binding signal": "0.0902 KA relative to UGCAUGU"
  },
  {
    "BINDER": "CACGGCC (DNA:RNA) RNA: GGGAGACCGGAAUUCAGAUUGUCCCACGGCCUUAAAUCCCGUCGUAGCCACCA DNA 1: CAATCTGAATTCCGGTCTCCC DNA 2: TGGTGGCTACGACGGGATT",
    "binding signal": "0.18 KA relative to UGCAUGU"
  },
  {
    "BINDER": "UCUUCCC (DNA:RNA) RNA: GGGAGACCGGAAUUCAGAUUGUCCUCUUCCCUUAAAUCCCGUCGUAGCCACCA DNA 1: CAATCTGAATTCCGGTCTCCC DNA 2: TGGTGGCTACGACGGGATT",
    "binding signal": "0.0652 KA relative to UGCAUGU"
  },
  {
    "BINDER": "UUGUUGG (DNA:RNA) RNA: GGGAGACCGGAAUUCAGAUUGUCCUUGUUGGUUAAAUCCCGUCGUAGCCACCA DNA 1: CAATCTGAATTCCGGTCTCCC DNA 2: TGGTGGCTACGACGGGATT",
    "binding signal": "0.117 KA relative to UGCAUGU"
  },
  {
    "BINDER": "GGGGAAC (DNA:RNA) RNA: GGGAGACCGGAAUUCAGAUUGUCCGGGGAACUUAAAUCCCGUCGUAGCCACCA DNA 1: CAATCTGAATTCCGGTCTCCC DNA 2: TGGTGGCTACGACGGGATT",
    "binding signal": "0.0664 KA relative to UGCAUGU"
  },
  {
    "BINDER": "ACACGGC (DNA:RNA) RNA: GGGAGACCGGAAUUCAGAUUGUCCACACGGCUUAAAUCCCGUCGUAGCCACCA DNA 1: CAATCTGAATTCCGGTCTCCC DNA 2: TGGTGGCTACGACGGGATT",
    "binding signal": "0.115 KA relative to UGCAUGU"
  },
  {
    "BINDER": "AAAGCCU (DNA:RNA) RNA: GGGAGACCGGAAUUCAGAUUGUCCAAAGCCUUUAAAUCCCGUCGUAGCCACCA DNA 1: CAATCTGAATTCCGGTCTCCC DNA 2: TGGTGGCTACGACGGGATT",
    "binding signal": "0.0705 KA relative to UGCAUGU"
  },
  {
    "BINDER": "GGUUUGG (DNA:RNA) RNA: GGGAGACCGGAAUUCAGAUUGUCCGGUUUGGUUAAAUCCCGUCGUAGCCACCA DNA 1: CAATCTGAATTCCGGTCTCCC DNA 2: TGGTGGCTACGACGGGATT",
    "binding signal": "0.277 KA relative to UGCAUGU"
  },
  {
    "BINDER": "UUCGAGC (DNA:RNA) RNA: GGGAGACCGGAAUUCAGAUUGUCCUUCGAGCUUAAAUCCCGUCGUAGCCACCA DNA 1: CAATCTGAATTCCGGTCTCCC DNA 2: TGGTGGCTACGACGGGATT",
    "binding signal": "0.116 KA relative to UGCAUGU"
  },
  {
    "BINDER": "ACCGGAG (DNA:RNA) RNA: GGGAGACCGGAAUUCAGAUUGUCCACCGGAGUUAAAUCCCGUCGUAGCCACCA DNA 1: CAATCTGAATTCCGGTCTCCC DNA 2: TGGTGGCTACGACGGGATT",
    "binding signal": "0.0806 KA relative to UGCAUGU"
  },
  {
    "BINDER": "GUCGUGG (DNA:RNA) RNA: GGGAGACCGGAAUUCAGAUUGUCCGUCGUGGUUAAAUCCCGUCGUAGCCACCA DNA 1: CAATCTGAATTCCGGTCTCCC DNA 2: TGGTGGCTACGACGGGATT",
    "binding signal": "0.112 KA relative to UGCAUGU"
  },
  {
    "BINDER": "AAAUCUU (DNA:RNA) RNA: GGGAGACCGGAAUUCAGAUUGUCCAAAUCUUUUAAAUCCCGUCGUAGCCACCA DNA 1: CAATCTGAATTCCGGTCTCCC DNA 2: TGGTGGCTACGACGGGATT",
    "binding signal": "0.0581 KA relative to UGCAUGU"
  },
  {
    "BINDER": "AUGCCGC (DNA:RNA) RNA: GGGAGACCGGAAUUCAGAUUGUCCAUGCCGCUUAAAUCCCGUCGUAGCCACCA DNA 1: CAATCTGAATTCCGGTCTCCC DNA 2: TGGTGGCTACGACGGGATT",
    "binding signal": "0.11 KA relative to UGCAUGU"
  },
  {
    "BINDER": "CGGUUUG (DNA:RNA) RNA: GGGAGACCGGAAUUCAGAUUGUCCCGGUUUGUUAAAUCCCGUCGUAGCCACCA DNA 1: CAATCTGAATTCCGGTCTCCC DNA 2: TGGTGGCTACGACGGGATT",
    "binding signal": "0.633 KA relative to UGCAUGU"
  },
  {
    "BINDER": "GGUUUGU (DNA:RNA) RNA: GGGAGACCGGAAUUCAGAUUGUCCGGUUUGUUUAAAUCCCGUCGUAGCCACCA DNA 1: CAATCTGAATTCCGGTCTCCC DNA 2: TGGTGGCTACGACGGGATT",
    "binding signal": "0.366 KA relative to UGCAUGU"
  }
]
